# experimentalTarget: human adenosine A1 receptor (Homo sapiens)
# assayProcedure: Adenosine A1 Receptor Functional Assay (A1GAL2)
# cond: CHO-K1 cells, cAMP inducible beta-galactosidase reporter, 4 nM r-PIA/1 uM Forskolin challenge
pKi: −log10 of the molar value.
pKi below 6 gives not met; pKi at or above it gives met.

Example cases with answers are listed next.
N#Cc1ccc(-c2nc(N)c3cc(CN4CCC(F)CC4)sc3n2)s1 : not met
N#Cc1ccc(-c2nc(N)c3cc(CN4CC=CCC4)sc3n2)cc1 : not met
Nc1nc(-c2ccc(F)c(F)c2)nc2sc(CN3CCOCC3)cc12 : not met

Kindly determine if pKi recorded for Nc1nc(-c2cccc(F)c2)nc2sc(CN3CCOCC3)cc12 is above or exactly 6.
met

Given C[C@@H]1CCC[C@H](C)N1Cc1cc2c(N)nc(-c3ccc(Br)o3)nc2s1 , state whether its pKi is at least 6.
met

###

# experimentalTarget: human adenosine A1 receptor (Homo sapiens, UniProt P30542)
# Sequence (P30542 1-326): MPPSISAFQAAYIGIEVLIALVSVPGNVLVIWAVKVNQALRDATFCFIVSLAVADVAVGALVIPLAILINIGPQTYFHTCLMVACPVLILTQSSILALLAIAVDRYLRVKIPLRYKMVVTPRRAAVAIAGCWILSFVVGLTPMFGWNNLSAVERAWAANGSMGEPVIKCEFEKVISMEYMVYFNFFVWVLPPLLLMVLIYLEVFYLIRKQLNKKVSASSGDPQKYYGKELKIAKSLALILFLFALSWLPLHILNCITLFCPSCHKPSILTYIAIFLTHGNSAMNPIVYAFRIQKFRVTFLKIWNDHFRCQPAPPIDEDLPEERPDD
# assayProcedure: Adenosine A1 Receptor Functional Assay (A1GAL2)
# cond: CHO-K1 cells, cAMP inducible beta-galactosidase reporter, 4 nM r-PIA/1 uM Forskolin challenge
Structures can show the parent of a compound that is named as a salt.
assayMetric: pKi
Numbers only, as −log10 of the molar value.

CC(C)c1ccccc1-c1nc(N)c2cc(CN3CCC(F)CC3)sc2n1 [Example 79] : 5.35
Nc1nc(-c2ccc(Cl)o2)nc2sc(CN3CCCCCC3)cc12 [Example 93] : 5.85
Nc1nc(-c2cccc(O)c2)nc2sc(CN3CCOCC3)cc12 [Example 106] : 5.61
Nc1nc(-c2ccco2)nc2sc(CN3CCOCC3)cc12 [Example 42] : 4.74
Nc1nc(-c2ccc(Cl)o2)nc2sc(CN3CC=CC3)cc12 [Example 97] : 6.11

Record pKi per entry; entries follow.
1. Nc1nc(-c2ccco2)nc2sc(CN3CCCC(F)(F)C3)cc12 [Example 57]
2. N#Cc1ccc(-c2nc(N)c3cc(CN4CCCCCC4)sc3n2)cc1 [Example 67]
3. Nc1nc(-c2ccco2)nc2sc(CN3CCC(=O)CC3)cc12 [Example 45]
4. Nc1nc(-c2cocn2)nc2sc(CN3CC=CCC3)cc12 [Example 70]
5. Nc1nc(-c2ccco2)nc2sc(CNC3CC3)cc12 [Example 29]

6.53
5.07
5.57
5.53
5.72

Go through the list and state pKi for each entry.
1. CCN(CC)Cc1cc2c(N)nc(-c3ccco3)nc2s1 [Example 31]
2. Nc1nc(-c2ccnc(Cl)c2)nc2sc(CN3CCCCC3)cc12 [Example 104]
3. Nc1nc(-c2ccc(C(F)F)o2)nc2sc(CN3CCC(F)CC3)cc12 [Example 100]
4. N#Cc1cccc(-c2nc(N)c3cc(CN4CCOCC4)sc3n2)c1 [Example 74]
5. Nc1nc(-c2ccc(Cl)o2)nc2sc(CN3CCCC3)cc12 [Example 90, hydrochloride]
6. N#Cc1ccccc1-c1nc(N)c2cc(CN3CCC(F)CC3)sc2n1 [Example 73]
7. CCN(CC)Cc1cc2c(N)nc(-c3ccc(C(F)F)o3)nc2s1 [Example 103]

5.67
5.41
5.78
6.00
6.15
5.30
5.68
